# measurement_target: human recombinant spermine oxidase (Homo sapiens, UniProt Q9NWM0)
# Sequence (Q9NWM0 whole entry): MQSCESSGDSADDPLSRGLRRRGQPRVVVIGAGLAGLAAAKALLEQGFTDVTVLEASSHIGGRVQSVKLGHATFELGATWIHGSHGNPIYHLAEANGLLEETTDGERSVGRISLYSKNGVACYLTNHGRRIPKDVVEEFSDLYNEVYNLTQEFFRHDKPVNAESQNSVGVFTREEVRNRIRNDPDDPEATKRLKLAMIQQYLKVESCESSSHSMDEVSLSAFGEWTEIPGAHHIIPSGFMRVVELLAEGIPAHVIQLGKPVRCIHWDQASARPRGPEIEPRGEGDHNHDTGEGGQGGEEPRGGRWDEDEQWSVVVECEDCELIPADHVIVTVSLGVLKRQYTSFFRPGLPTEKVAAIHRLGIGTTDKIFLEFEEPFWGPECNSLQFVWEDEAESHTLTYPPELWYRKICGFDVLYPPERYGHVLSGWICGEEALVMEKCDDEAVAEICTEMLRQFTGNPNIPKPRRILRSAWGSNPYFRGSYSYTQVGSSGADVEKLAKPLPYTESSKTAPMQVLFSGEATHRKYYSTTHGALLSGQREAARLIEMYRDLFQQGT
# protocol_text: Inhibition of spermine oxidase
# protocol_conditions: assayed between 0.1 and 1.0 μM; read-out: IC50 against spermine oxidase (SMOX)
measurement_kind: IC50 (nM)
Please reply with the bare figure in nM and do not write the unit itself.

Under human recombinant spermine oxidase (Homo sapiens, UniProt Q9NWM0): IC50 value of Nc1nnc(NCc2c(Cl)cccc2Oc2ccccc2)[nH]1 [Compound C1] ?
40

---

Reported inhibition at 10 µM values for the following compounds.
# measurement_target: human recombinant LSD1 (Homo sapiens)
# Construct: purchased Cayman Chemical Item #700120
# protocol_text: LSD1 inhibitor screening assay (Cayman Chemical kit, fluorometric)
# Type: biochemical
# protocol_conditions: 10 μM compound; Chembridge analogues table
# Protocol: LSD1 Inhibitor Screening Assay: In short, 10 μM of compound was combined with the fluorometic substrate 10-acetyl-3,7-dihydroxyphenoxazine, horseradish peroxidase, human recombinant LSD1, and 100 μM dimethylated lysine at residue 4 [ARTK(diMe)[…]] (Seq. ID No: 1) for 30 mins at 37° C. Plates were read using an excitation wavelength of 535 nm and an emission wavelength of 590 nm with a SpectraMax M5 Microplate reader.
Note: a bare number is incomplete; add the unit.

Which measured inhibition at 10 µM value corresponds to COc1cccc(NCc2nn[nH]n2)c1OCc1ccc(F)cc1Cl ?
-3.1%

Let us now turn to Clc1ccccc1CNc1nc[nH]n1
4.6%

Let us now turn to Clc1cccc(Cl)c1CNc1nc[nH]n1
30.9%

Let us now turn to CCOc1ccc(Cl)cc1CNc1nn[nH]n1
20.8%

Let us now turn to Fc1ccccc1COc1ccc(Cl)cc1CNc1nc[nH]n1
30.6%

Let us now turn to COc1ccc(Cl)cc1CNc1nn[nH]n1
30.8%

Let us now turn to Clc1ccc(CNc2nc[nH]n2)c(Cl)c1
2.2%

Let us now turn to Fc1ccc(COc2ccc(Cl)cc2CNc2nc[nH]n2)cc1
27.7%

Let us now turn to CCOc1cc(Cl)cc(CNc2nc[nH]n2)c1
-3%
